Give change in vivo at 10 mg/kg for every item shown.
- System: Plasma TC
- methodNotes: in vivo screen designated APCC (high fat, high cholesterol diet, plasma cholesterol)
- Design: species or system male Sprague-Dawley rats
- experimentalConditions: Rattus norvegicus, dose 10 mg/kg; rats, PCC diet with 0.5% cholic acid overnight, vehicle CMC/Tween
Answer with a number only, understood to be in %.

Which change in vivo at 10 mg/kg value belongs to CC(C)c1cc(C(C)C)c(CC(=O)NS(=O)(=O)Oc2c(C(C)C)cc(NS(=O)(=O)c3cccs3)cc2C(C)C)c(C(C)C)c1 ?
-60

Which change in vivo at 10 mg/kg value belongs to CC(C)c1cc(C(C)C)c(CC(=O)NS(=O)(=O)Oc2c(C(C)C)cc(C=O)cc2C(C)C)c(C(C)C)c1 ?
-44

Which change in vivo at 10 mg/kg value belongs to CC(C)c1cc(C(C)C)c(CC(=O)NS(=O)(=O)Oc2c(C(C)C)cc(N(CCO)CCO)cc2C(C)C)c(C(C)C)c1 ?
-48

Which change in vivo at 10 mg/kg value belongs to CC(C)c1cc(C(C)C)c(CC(=O)NS(=O)(=O)Oc2c(C(C)C)cc(NC(=O)Nc3ccccc3)cc2C(C)C)c(C(C)C)c1 ?
-30

* * *

Give change in vivo at 10 mg/kg for every item shown.
- Test system: Plasma TC
- methodNotes: in vivo screen designated APCC (high fat, high cholesterol diet, plasma cholesterol)
- Design: species or system male Sprague-Dawley rats
- experimentalConditions: Rattus norvegicus, dose 10 mg/kg; rats, PCC diet with 0.5% cholic acid overnight, vehicle CMC/Tween
Structures can show the parent of a compound that is named as a salt.
Answer with a number only, understood to be in %.

Which change in vivo at 10 mg/kg value belongs to CC(C)c1cc(C(C)C)c(CC(=O)NS(=O)(=O)Oc2c(C(C)C)cc(C(N)=O)cc2C(C)C)c(C(C)C)c1 ?
-5

Which change in vivo at 10 mg/kg value belongs to CC(C)c1cc(C(C)C)c(CC(=O)NS(=O)(=O)Oc2c(C(C)C)cc(NC(=O)CN)cc2C(C)C)c(C(C)C)c1 ?
-65

Which change in vivo at 10 mg/kg value belongs to CC(C)c1cc(C(C)C)c(CC(=O)NS(=O)(=O)Oc2c(C(C)C)cc(CNCc3ccccc3)cc2C(C)C)c(C(C)C)c1 [Example 22, mono hydrochloride] ?
-18

Which change in vivo at 10 mg/kg value belongs to CC(C)c1cc(C(C)C)c(CC(=O)NS(=O)(=O)Oc2c(C(C)C)cc(C=CC#N)cc2C(C)C)c(C(C)C)c1 ?
-35

Which change in vivo at 10 mg/kg value belongs to CC(C)c1cc(C(C)C)c(CC(=O)NS(=O)(=O)Oc2c(C(C)C)cc(NC(=O)[C@@H](N)CCCCN)cc2C(C)C)c(C(C)C)c1 [Example 2, dihydrochloride] ?
-60

Which change in vivo at 10 mg/kg value belongs to CC(C)c1cc(C(C)C)c(CC(=O)NS(=O)(=O)Oc2c(C(C)C)cc(NC(=O)CCCCN)cc2C(C)C)c(C(C)C)c1 ?
-15

Which change in vivo at 10 mg/kg value belongs to CC(C)c1cc(C(C)C)c(CC(=O)NS(=O)(=O)Oc2c(C(C)C)cc(OCCCN)cc2C(C)C)c(C(C)C)c1 [Example 16, hydrochloride salt] ?
-47

Which change in vivo at 10 mg/kg value belongs to CC(C)c1cc(C(C)C)c(CC(=O)NS(=O)(=O)Oc2c(C(C)C)cc(NS(C)(=O)=O)cc2C(C)C)c(C(C)C)c1 ?
-13

Which change in vivo at 10 mg/kg value belongs to CC(C)c1cc(C(C)C)c(CC(=O)NS(=O)(=O)Oc2c(C(C)C)cc(NS(=O)(=O)c3cccc4c(N(C)C)cccc34)cc2C(C)C)c(C(C)C)c1 ?
-61

Which change in vivo at 10 mg/kg value belongs to CC(C)c1cc(C(C)C)c(CC(=O)NS(=O)(=O)Oc2c(C(C)C)cc(SC#N)cc2C(C)C)c(C(C)C)c1 ?
-46

Which change in vivo at 10 mg/kg value belongs to CC(C)c1cc(C(C)C)c(CC(=O)NS(=O)(=O)Oc2c(C(C)C)cc(NC(=O)C(C)(C)N)cc2C(C)C)c(C(C)C)c1 ?
-8

Which change in vivo at 10 mg/kg value belongs to CC(C)c1cc(C(C)C)c(CC(=O)NS(=O)(=O)Oc2c(C(C)C)cc(CCCCCC(=O)O)cc2C(C)C)c(C(C)C)c1 ?
-47

Which change in vivo at 10 mg/kg value belongs to CC(C)c1cc(C(C)C)c(CC(=O)NS(=O)(=O)Oc2c(C(C)C)cc(CNC(=O)CN)cc2C(C)C)c(C(C)C)c1 ?
-16

Which change in vivo at 10 mg/kg value belongs to CC(=O)Nc1cc(C(C)C)c(OS(=O)(=O)NC(=O)Cc2c(C(C)C)cc(C(C)C)cc2C(C)C)c(C(C)C)c1 ?
-44

Which change in vivo at 10 mg/kg value belongs to CC(C)c1cc(C(C)C)c(CC(=O)NS(=O)(=O)Oc2c(C(C)C)cc(NC(=O)Nc3c(C(C)C)cccc3C(C)C)cc2C(C)C)c(C(C)C)c1 ?
-3

Which change in vivo at 10 mg/kg value belongs to CC(C)c1cc(C(C)C)c(CC(=O)NS(=O)(=O)Oc2c(C(C)C)cc(C#N)cc2C(C)C)c(C(C)C)c1 ?
-38

Which change in vivo at 10 mg/kg value belongs to CC(C)c1cc(C(C)C)c(CC(=O)NS(=O)(=O)Oc2c(C(C)C)cc(NC(=O)[C@@H](C)N)cc2C(C)C)c(C(C)C)c1 ?
-19

Which change in vivo at 10 mg/kg value belongs to CC(C)c1cc(C(C)C)c(CC(=O)NS(=O)(=O)Oc2c(C(C)C)cc(CO)cc2C(C)C)c(C(C)C)c1 ?
-54

Which change in vivo at 10 mg/kg value belongs to CC(C)c1cc(C(C)C)c(CC(=O)NS(=O)(=O)Oc2c(C(C)C)cc(NC(=S)Nc3ccccc3)cc2C(C)C)c(C(C)C)c1 ?
-21

Which change in vivo at 10 mg/kg value belongs to CC(C)c1cc(C(C)C)c(CC(=O)NS(=O)(=O)Oc2c(C(C)C)cc(CN3CCN(C)CC3)cc2C(C)C)c(C(C)C)c1 [Example 23, dihydrochloride] ?
5

Which change in vivo at 10 mg/kg value belongs to CCOC(=O)CCCCCc1cc(C(C)C)c(OS(=O)(=O)NC(=O)Cc2c(C(C)C)cc(C(C)C)cc2C(C)C)c(C(C)C)c1 ?
-17

Which change in vivo at 10 mg/kg value belongs to CC(C)c1cc(C(C)C)c(CC(=O)NS(=O)(=O)Oc2c(C(C)C)cc(NC(=O)NCCC(=O)O)cc2C(C)C)c(C(C)C)c1 ?
-15

Which change in vivo at 10 mg/kg value belongs to CC(C)c1cc(C(C)C)c(CC(=O)NS(=O)(=O)Oc2c(C(C)C)cc(NC(=O)[C@H](C)N)cc2C(C)C)c(C(C)C)c1 ?
-74

Which change in vivo at 10 mg/kg value belongs to CC(C)c1cc(C(C)C)c(CC(=O)NS(=O)(=O)Oc2c(C(C)C)cc(NC(=O)C(N)Cc3c[nH]c4ccccc34)cc2C(C)C)c(C(C)C)c1 (stereo not shown) ?
-25

Which change in vivo at 10 mg/kg value belongs to CSCCC(N)C(=O)Nc1cc(C(C)C)c(OS(=O)(=O)NC(=O)Cc2c(C(C)C)cc(C(C)C)cc2C(C)C)c(C(C)C)c1 (stereo not shown) [Example 6, trifluoroacetate] ?
-72
